FYI, the data here is from patent US9376442B2.

Biological target: PDE4B1 (Homo sapiens, UniProt Q07343)
Construct: made in house; host or cells: SF21 insect cells (baculovirus; pCRBac vector), 1000 x g supernatant of homogenate
Sequence (Q07343 whole entry): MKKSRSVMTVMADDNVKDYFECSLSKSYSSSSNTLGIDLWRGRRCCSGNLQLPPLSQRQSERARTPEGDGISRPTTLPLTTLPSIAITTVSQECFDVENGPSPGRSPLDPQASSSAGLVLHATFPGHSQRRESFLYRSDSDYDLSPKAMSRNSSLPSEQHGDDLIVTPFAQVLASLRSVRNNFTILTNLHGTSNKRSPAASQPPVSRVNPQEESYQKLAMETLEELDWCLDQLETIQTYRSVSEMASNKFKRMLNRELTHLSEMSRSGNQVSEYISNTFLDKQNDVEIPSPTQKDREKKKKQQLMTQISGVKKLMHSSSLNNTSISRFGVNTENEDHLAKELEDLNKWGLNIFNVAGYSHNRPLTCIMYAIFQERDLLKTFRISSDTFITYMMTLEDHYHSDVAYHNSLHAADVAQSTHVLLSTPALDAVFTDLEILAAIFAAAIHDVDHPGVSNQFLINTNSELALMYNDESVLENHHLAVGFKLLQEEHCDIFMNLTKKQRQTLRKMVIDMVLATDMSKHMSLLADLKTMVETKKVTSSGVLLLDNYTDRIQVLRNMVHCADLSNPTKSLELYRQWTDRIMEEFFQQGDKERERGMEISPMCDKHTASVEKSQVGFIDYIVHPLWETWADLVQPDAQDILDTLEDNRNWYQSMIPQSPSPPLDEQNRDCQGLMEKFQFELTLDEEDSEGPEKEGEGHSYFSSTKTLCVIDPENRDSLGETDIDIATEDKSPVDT
Experiment: Inhibition of type 4 phosphodiesterase (PDE4) activity, modified SPA test with recombinant PDE4B1 expressed in SF21 insect cells
Type: biochemical
Details: recombinant PDE4B1, 0.5 μM cAMP, read-out: PDE4B1 inhibitory values [measured as −log IC50 (mol/l)] (converted)
Description: Method for Measuring Inhibition of the Type 4 Phosphodiesterase (PDE4) Activity: The PDE4B1 (GB no. L20966) was a gift of Prof. M. Conti (Stanford University, USA). It was amplified from the original plasmid (pCMV5) via PCR with primers Rb18 (5′-[…]-3′) and Rb10 (5′-[…]-3′) and cloned into the pCRBac vector (Invitrogen, Groningen, NL). The recombinant baculovirus was prepared by means of homologous recombination in SF9 insect cells. […]
IC50 overview

Some molecules with known IC50 results, for comparison:
### Prompt Output IC50 of CC(=O)N[C@H]1CC[C@H](NC(=O)c2c(C)[nH]c3c(-c4cc(C(F)F)ccc4OCC4CC4)ncnc23)C1 [Example P89]
### Response < 100 nM

### Prompt Hello, please tell me recorded IC50 for this one: CCC(=O)N1CCC(NC(=O)c2c(C)[nH]c3c(-c4cc(F)ccc4OCC4CC4)ncnc23)CC1 [Example E38]
### Response 100 to 1000 nM

### Prompt Let me know recorded IC50 for CCC(=O)N[C@H]1CC[C@H](NC(=O)c2c(C)[nH]c3c(-c4cc(OC)ccc4OCC4CC4)ncnc23)CC1 [Example E70] , thanks.
### Response 100 to 1000 nM

### Prompt Determine from records and report IC50 for Cc1[nH]c2c(-c3cc(F)ccc3OCC3CC3)ncnc2c1C(=O)N[C@H]1CC[C@H](NC(=O)CO)CC1 [Example F25]
### Response < 100 nM

### Prompt Answer with the recorded IC50 of CCc1ccc(OCC2CC2)c(-c2ncnc3c(C(=O)NC4CCN(C(=O)COC)CC4)c(C)[nH]c23)c1 [Example E147] only.
### Response 100 to 1000 nM

Others:
### Prompt Determine from records and report IC50 for CC(=O)N[C@@H]1CC[C@@H](NC(=O)c2c(C)[nH]c3c(-c4cc(C(F)F)ccc4OCC4CC4)ncnc23)[C@H](F)C1 (relative stereo) [Example P159]
### Response < 100 nM

### Prompt Recall and state the measured IC50 for COCC(=O)N[C@H]1CC[C@H](NC(=O)c2c(C)[nH]c3c(-c4cc(C(C)C)ccc4OCC4CC4)ncnc23)CC1 [Example E160] .
### Response 100 to 1000 nM
